Some compounds, each annotated with its measured EC50.
Target: human androgen receptor (Homo sapiens, UniProt P10275)
Construct: expressed in transfected cells; host or cells: HEK293
Sequence (P10275 1-920): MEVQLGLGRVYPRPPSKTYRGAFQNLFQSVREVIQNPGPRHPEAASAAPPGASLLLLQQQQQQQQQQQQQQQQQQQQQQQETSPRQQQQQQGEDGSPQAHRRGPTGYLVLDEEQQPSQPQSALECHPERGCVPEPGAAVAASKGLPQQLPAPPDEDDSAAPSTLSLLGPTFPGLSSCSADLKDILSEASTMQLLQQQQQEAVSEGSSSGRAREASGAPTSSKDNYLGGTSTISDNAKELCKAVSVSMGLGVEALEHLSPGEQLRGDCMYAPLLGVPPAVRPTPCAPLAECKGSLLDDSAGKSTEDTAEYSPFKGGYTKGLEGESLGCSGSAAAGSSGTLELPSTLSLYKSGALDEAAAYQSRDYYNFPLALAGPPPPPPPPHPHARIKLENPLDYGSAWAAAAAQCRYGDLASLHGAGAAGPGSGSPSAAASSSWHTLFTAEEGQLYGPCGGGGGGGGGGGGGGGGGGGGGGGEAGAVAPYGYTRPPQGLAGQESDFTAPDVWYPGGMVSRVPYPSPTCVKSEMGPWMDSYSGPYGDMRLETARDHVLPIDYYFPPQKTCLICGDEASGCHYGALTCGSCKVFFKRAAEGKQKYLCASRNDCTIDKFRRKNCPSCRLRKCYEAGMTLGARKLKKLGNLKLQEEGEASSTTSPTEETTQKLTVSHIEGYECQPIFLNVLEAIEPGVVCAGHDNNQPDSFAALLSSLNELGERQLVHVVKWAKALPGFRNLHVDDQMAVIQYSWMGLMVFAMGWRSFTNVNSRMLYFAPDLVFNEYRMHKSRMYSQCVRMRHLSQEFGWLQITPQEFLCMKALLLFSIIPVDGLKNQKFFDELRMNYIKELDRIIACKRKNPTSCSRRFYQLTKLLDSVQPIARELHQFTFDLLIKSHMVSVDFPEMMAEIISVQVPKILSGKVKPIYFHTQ
Test: Reporter assay of an androgen receptor responsive sequence (luciferase, transiently transfected HEK293 cells)
Format: cell-based
Conditions: 24 hours incubation, relative to activity of 100 nM DHT, read-out: AR transcriptive activity (pEC50) (converted)
A number alone suffices; assume nM.

Illustrative cases are given below, each with its answer.
cpd-smiles: Cc1sc(N(Cc2ccc(OC(F)(F)F)cc2)c2ccc(C(F)(F)F)nc2)nc1C(=O)NS(C)(=O)=O
assay-target: human androgen receptor (Homo sapiens, UniProt P10275)
unit-symbol: nM
EC50: 1000
//
cpd-smiles: Cc1oc(N(Cc2nc3ccccc3s2)c2ccc(C#N)cc2)nc1C(=O)NS(C)(=O)=O
assay-target: human androgen receptor (Homo sapiens, UniProt P10275)
unit-symbol: nM
EC50: 2510
//
cpd-smiles: Cc1sc(N(CCc2ccc(C#N)cc2)Cc2ccc(Cl)cc2)nc1C(=O)NS(=O)(=O)Cc1ccncc1
assay-target: human androgen receptor (Homo sapiens, UniProt P10275)
unit-symbol: nM
EC50: 158

Query: Entry Cc1sc(N(Cc2ccc(F)cc2Br)c2ccc(C#N)cc2)nc1C(=O)NS(C)(=O)=O : reported EC50 = ?
Reply: 501

Query: Entry COCCCS(=O)(=O)NC(=O)c1nc(N(Cc2cc(F)cc(OC(F)F)c2)c2ccc(C#N)cc2)sc1C : reported EC50 = ?
Reply: 158
